area over the GR curve reference
System: HCC1395
Protocol Notes: area over the GR curve, 72 h; higher = more effect

- Compound: "CCCCOc1c(C(=O)c2c(F)cc(C)cc2F)c[nH]c2nncc1-2 (max 10 µM)"
  area over the GR curve, GR: 0.807
- Compound: "CN(C)C/C=C/C(=O)Nc1ccc(O[C@@H]2CCC[C@@H](Nc3ncc(Cl)c(-c4c[nH]c5ccccc45)n3)C2)cc1 [BSJ-01-175] (max 10 µM)"
  area over the GR curve, GR: 1.01
- Compound: "COc1cccc2c1C(=O)c1c(O)c3c(c(O)c1C2=O)C[C@@](O)(C(=O)CO)C[C@@H]3O[C@H]1C[C@H](N)[C@H](O)[C@H](C)O1 [Doxorubicin] (max 3.162 µM)"
  area over the GR curve, GR: 0.637
- Compound: "CN(C)C(=O)c1cc2cnc(Nc3ccc(N4CCNCC4)cn3)nc2n1C1CCCC1 [LEE011/Ribociclib] (max 10 µM)"
  area over the GR curve, GR: 0.323
- Compound: "CC(C)Nc1cc(-c2c[nH]c(C(=O)N[C@H](CO)c3cccc(Cl)c3)c2)c(Cl)cn1 [BVD523] (max 10 µM)"
  area over the GR curve, GR: 0.259
- Compound: "CS(=O)(=O)N1CCN(Cc2cc3nc(-c4cccc5[nH]ncc45)nc(N4CCOCC4)c3s2)CC1 [Pictilisib/GDC0941] (max 10 µM)"
  area over the GR curve, GR: 0.226
- Compound: "NC1(C(=O)N[C@@H](CCO)c2ccc(Cl)cc2)CCN(c2nc[nH]c3nccc2-3)CC1 [AZD5363] (max 10 µM)"
  area over the GR curve, GR: 0.5
- Compound: "CCOc1cc2ncc(C#N)c(Nc3ccc(OCc4ccccn4)c(Cl)c3)c2cc1NC(=O)/C=C/CN(C)C [Neratinib/HKI272] (max 3.162 µM)"
  area over the GR curve, GR: 0.142
- Compound: "C=CCn1c(=O)c2cnc(Nc3ccc(N4CCN(C)CC4)cc3)nc2n1-c1cccc(C(C)(C)O)n1 [AZD1775] (max 10 µM)"
  area over the GR curve, GR: 0.886
- Compound: "CCc1cncnc1N1CCN(Cc2nc3ccc(C(F)(F)F)cc3[nH]2)CC1 (max 10 µM)"
  area over the GR curve, GR: 0.0037
- Compound: "CN1CC[C@H](c2c(O)cc(O)c3c(=O)cc(-c4ccccc4Cl)oc23)[C@H](O)C1 [Flavopiridol] (max 1 µM)"
  area over the GR curve, GR: 0.339
- Compound: "Cc1nc(-c2cn3c(n2)-c2ccc(-c4cnn(C(C)(C)C(N)=O)c4)cc2OCC3)n(C(C)C)n1 [Taselisib/GDC0032] (max 10 µM)"
  area over the GR curve, GR: 0.208
- Compound: "C=CC(=O)Nc1ccc(C(=O)Nc2[nH]nc3c2CN(C(=O)N[C@H](CN(C)C)c2ccccc2)C3(C)C)cc1 [YKL-5-124] (max 10 µM)"
  area over the GR curve, GR: 0.874
- Compound: "CN(C)C/C=C/C(=O)Nc1ccc(C(=O)Nc2cccc(Nc3ncc(Cl)c(-c4c[nH]c5ccccc45)n3)c2)cc1 [THZ1] (max 1 µM)"
  area over the GR curve, GR: 0.609
- Compound: "COc1ccc2c(c1)[C@]1(C[C@H]1c1ccc3c(/C=C/c4ccc(CN5C[C@@H](C)O[C@@H](C)C5)cc4)n[nH]c3c1)C(=O)N2"
  area over the GR curve, GR: 0.709
- Compound: "CC(=O)c1c(C)c2cnc(Nc3ccc(N4CCN(CCOCCOCCOCCNC(=O)COc5cccc6c5C(=O)N(C5CCC(=O)NC5=O)C6=O)CC4)cn3)nc2n(C2CCCC2)c1=O (configuration not stated) [BSJ-03-123] (max 10 µM)"
  area over the GR curve, GR: 0.323
- Compound: "CCc1cnn2c(NCc3ccc[n+]([O-])c3)cc(N3CCCC[C@H]3CCO)nc12 (max 1 µM)"
  area over the GR curve, GR: 0.644

====

System: SUM1315
Protocol Notes: GRmax, 72 h; higher = less effect;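 also: breast cell lines in 384-well plates, nine doses across a 10^4 range, Dye Drop imaging of viable cells vs DMSO and time-zero plates, GR 0 means no net growth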
The recorded GRmax, 72 h of each item maps onto one of these classes: bin 0 (below -0.3 GR), bin 1 (-0.3 GR to below 0.03 GR), bin 2 (0.03 GR or more)

- Molecule: "CNCc1ccc(-c2[nH]c3cc(F)cc4c3c2CCNC4=O)cc1 [Rucaparib] (max 10 µM)"
  Assigned Category: "bin 1"
- Molecule: "Nc1cc(C(F)(F)F)c(-c2cc(N3CCOCC3)nc(N3CCOCC3)n2)cn1 [Buparlisib/NVP-BKM120] (max 10 µM)"
  Assigned Category: "bin 0"
- Molecule: "CC(C)n1nc(-c2ccc3oc(N)nc3c2)c2c(N)ncnc21 [INK128/MLN0128] (max 3.162 µM)"
  Assigned Category: "bin 1"
- Molecule: "Nc1ccc(-c2ccc3ncc4ccc(=O)n(-c5cccc(C(F)(F)F)c5)c4c3c2)cn1 [Torin2] (max 1 µM)"
  Assigned Category: "bin 1"
- Molecule: "C[C@@H]1COCCN1c1cc(C2([S@](C)(=N)=O)CC2)nc(-c2cc[nH]c3nccc2-3)n1 [AZD6738] (max 10 µM)"
  Assigned Category: "bin 1"
- Molecule: "N.N.[Cl][Pt][Cl] [Cisplatin] (max 10 µM)"
  Assigned Category: "bin 2"
- Molecule: "Cc1cc(Nc2ncc(Cl)c(Nc3ccccc3S(=O)(=O)C(C)C)n2)c(OC(C)C)cc1C1CCNCC1 [Ceritinib/LDK378] (max 10 µM)"
  Assigned Category: "bin 0"
- Molecule: "O=C1NC(=O)[C@@H](c2cn3c4c(cccc24)CCC3)[C@@H]1c1c[nH]c2ccccc12 [Tivantinib/ARQ197] (max 10 µM)"
  Assigned Category: "bin 0"
- Molecule: "Cc1cc(C(C)Nc2ccccc2)c2nc(N3CCOCC3)cc(=O)n2c1 (stereo unspecified) [TGX221] (max 10 µM)"
  Assigned Category: "bin 2"
- Molecule: "O=C(CCCCCCC(=O)Nc1ccccc1)NO [Vorinostat] (max 10 µM)"
  Assigned Category: "bin 1"

====

Tested on: MDAMB361
Protocol Notes: area over the GR curve, 72 h; higher = more effect
Classify as follows. Reported area over the GR curve greater than or equal to 0.1 GR: 1. Reported area over the GR curve below: -1.

- Compound: "C=CCn1c(=O)c2cnc(Nc3ccc(N4CCN(C)CC4)cc3)nc2n1-c1cccc(C(C)(C)O)n1 [AZD1775] (max 10 µM)"
  Measured Target: "MDAMB361"
  Assigned Category: 1
- Compound: "CCc1cnn2c(NCc3ccc[n+]([O-])c3)cc(N3CCCC[C@H]3CCO)nc12 (max 1 µM)"
  Measured Target: "MDAMB361"
  Assigned Category: 1
- Compound: "Cc1cc(C(C)Nc2ccccc2)c2nc(N3CCOCC3)cc(=O)n2c1 (stereo unspecified) [TGX221] (max 10 µM)"
  Measured Target: "MDAMB361"
  Assigned Category: -1
- Compound: "Cc1nn(C)c(COc2ccc(N3CCN(S(=O)(=O)N(C)C)CC3)cc2)c1-c1cccc2c(CCCOc3cccc4ccccc34)c(C(=O)O)n(CCN3CCOCC3)c12 (max 10 µM)"
  Measured Target: "MDAMB361"
  Assigned Category: -1
- Compound: "O=C(c1cc(Cc2n[nH]c(=O)c3ccccc23)ccc1F)N1CCN(C(=O)C2CC2)CC1 [Olaparib/AZD2281] (max 10 µM)"
  Measured Target: "MDAMB361"
  Assigned Category: -1
- Compound: "COc1cccc2c1C(=O)c1c(O)c3c(c(O)c1C2=O)C[C@@](O)(C(=O)CO)C[C@@H]3O[C@H]1C[C@H](N)[C@H](O)[C@H](C)O1 [Doxorubicin] (max 3.162 µM)"
  Measured Target: "MDAMB361"
  Assigned Category: 1

====

System: SUM229PE
Protocol Notes: area over the GR curve, 72 h; higher = more effect;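 also: Dye Drop or Deep Dye Drop imaging of viable cells in 384-well plates (Hoechst nuclei, LIVE/DEAD dye), nine half-log doses, GR normalized to DMSO controls and time-zero plates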
area over the GR curve values by entry

- Compound: "CN(C)C/C=C/C(=O)Nc1ccc(O[C@@H]2CCC[C@@H](Nc3ncc(Cl)c(-c4c[nH]c5ccccc45)n3)C2)cc1 [BSJ-01-175] (max 10 µM)"
  area over the GR curve: "0.745 GR"
- Compound: "CN(C)C/C=C/C(=O)Nc1ccc(C(=O)Nc2cccc(Nc3ncc(Cl)c(-c4c[nH]c5ccccc45)n3)c2)cc1 [THZ1] (max 1 µM)"
  area over the GR curve: "0.504 GR"
- Compound: "C=CC(=O)Nc1ccc(C(=O)Nc2[nH]nc3c2CN(C(=O)N[C@H](CN(C)C)c2ccccc2)C3(C)C)cc1 [YKL-5-124] (max 10 µM)"
  area over the GR curve: "0.744 GR"
- Compound: "O=C1NC(=O)[C@@H](c2cn3c4c(cccc24)CCC3)[C@@H]1c1c[nH]c2ccccc12 [Tivantinib/ARQ197] (max 10 µM)"
  area over the GR curve: "0.661 GR"
- Compound: "CO[C@@H](C)Cn1c(=O)n(C)c2cnc3ccc(-c4cncc(C(C)(C)O)c4)cc3c21 (max 10 µM)"
  area over the GR curve: "0.409 GR"
